target-system: 2-5A-dependent ribonuclease (Homo sapiens)
experimental-details: Antagonist activity at human RNase L expressed in Escherichia coli BL21 (DE3) cells assessed as RNA cleavage using Cy5-C11-rUU-C7-BHQ2 as substrate by FRET assay in presence of natural activator pAAAA
Type: functional
The source made the active and inactive calls. No cut-off for these calls is given here.
endpoint-label: inhibition

# smiles-notation, experimental-result
measured = [
    ("Nc1ncnc2c1ncn2[C@@H]1O[C@H](COP(=O)(O)O[C@@H]2[C@H](O)[C@@H](COP(=O)(O)CO[C@@H]3[C@H](O)[C@@H](COP(=O)(O)CO[C@@H]4[C@H](O)[C@@H](COP(=O)(O)O)O[C@H]4n4cnc5c(N)ncnc54)O[C@H]3n3cnc4c(N)ncnc43)O[C@H]2n2cnc3c(N)ncnc32)[C@@H](O)[C@H]1O", "inactive"),
    ("Nc1ncnc2c1ncn2[C@@H]1O[C@H](COP(=O)(O)CO[C@@H]2[C@H](O)[C@@H](COP(=O)(O)O[C@@H]3[C@H](O)[C@@H](COP(=O)(O)CO[C@@H]4[C@H](O)[C@@H](COP(=O)(O)O)O[C@H]4n4cnc5c(N)ncnc54)O[C@H]3n3cnc4c(N)ncnc43)O[C@H]2n2cnc3c(N)ncnc32)[C@@H](O)[C@H]1O", "inactive"),
]
